Reference source for all entries: ChEMBL document CHEMBL1146197

- Test system: Escherichia coli
- measurement-description: microbe, parasite or virus in culture
- Assay type: functional
- experimental-conditions: DH5alpha
quantity-name: MIC (µg/mL)
Number in µg/mL, nothing else.

Using the record for CCN1CCN(C(=O)N[C@@H](C(=O)N[C@@H]2C(=O)N3[C@@H]2SC(C)(C)[C@@H]3C(=O)O)c2ccccc2)C(=O)C1=O [PIPERACILLIN] , report its MIC. 256

Quick one: MIC of CC(C)(O/N=C(\C(=O)N[C@@H]1C(=O)N2C(C(=O)[O-])=C(C[n+]3ccccc3)CS[C@H]12)c1csc(N)n1)C(=O)O [CEFTAZIDIME] ? 8

Please report the recorded MIC for CO[C@@]1(NC(=O)Cc2cccs2)C(=O)N2C(C(=O)O)=C(COC(N)=O)CS[C@@H]21 [CEFOXITIN] . 8

Please report the recorded MIC for C[C@H]1[C@H](NC(=O)/C(=N\OC(C)(C)C(=O)O)c2csc(N)n2)C(=O)N1S(=O)(=O)O (stereo in doubt) [AZTREONAM] . 2

For the compound shown here, CO/N=C(\C(=O)N[C@@H]1C(=O)N2C(C(=O)O)=C(COC(N)=O)CS[C@H]12)c1ccco1 [CEFUROXIME] , give the reported MIC. 8

Quick one: MIC of CC(=O)OCC1=C(C(=O)O)N2C(=O)[C@@H](NC(=O)Cc3cccs3)[C@H]2SC1 [CEPHALOTHIN] ? 8

Fill blank: measured MIC of the compound CO/N=C(\C(=O)N[C@@H]1C(=O)N2C(C(=O)O)=C(COC(C)=O)CS[C@H]12)c1csc(N)n1 [CEFOTAXIME] is ____. 0.06

====

- Test system: Escherichia coli
- measurement-description: Antimicrobial activity against recombinant Escherichia coli DH5-alpha isolate expressing pBK-TEM-29 and ESBL by disk diffusion assay
- Format: functional
- experimental-conditions: DH5alpha
quantity-name: log10 of MIC (log10 of the value in µg/mL)
Reminder: these figures are log10 of reported MIC, in µg/mL before transformation.

Would you mind telling me what log10 of MIC value was observed for CC(=O)OCC1=C(C(=O)O)N2C(=O)[C@@H](NC(=O)Cc3cccs3)[C@H]2SC1 [CEPHALOTHIN] ? 1.81

GET /values?readout=log10 of MIC&item= CO[C@@]1(NC(=O)Cc2cccs2)C(=O)N2C(C(=O)O)=C(COC(N)=O)CS[C@@H]21 [CEFOXITIN] 1.20

Recorded log10 of MIC of CCN1CCN(C(=O)N[C@@H](C(=O)N[C@@H]2C(=O)N3[C@@H]2SC(C)(C)[C@@H]3C(=O)O)c2ccccc2)C(=O)C1=O [PIPERACILLIN] , please. 3.01

Please look up its log10 of MIC: CO/N=C(\C(=O)N[C@@H]1C(=O)N2C(C(=O)O)=C(COC(N)=O)CS[C@H]12)c1ccco1 [CEFUROXIME] 3.01

Name the recorded log10 of MIC for CO/N=C(\C(=O)N[C@@H]1C(=O)N2C(C(=O)O)=C(COC(C)=O)CS[C@H]12)c1csc(N)n1 [CEFOTAXIME] . -0.30

Need log10 of MIC, item "CO/N=C(\C(=O)N[C@@H]1C(=O)N2C(C(=O)[O-])=C(C[N+]3(C)CCCC3)CS[C@H]12)c1csc(N)n1" 0.60

# input compound: C[C@H]1[C@H](NC(=O)/C(=N\OC(C)(C)C(=O)O)c2csc(N)n2)C(=O)N1S(=O)(=O)O (stereo in doubt) [AZTREONAM] ; wanted: its log10 of MIC 0.60

What value of measured log10 of MIC is listed for CC(C)(O/N=C(\C(=O)N[C@@H]1C(=O)N2C(C(=O)[O-])=C(C[n+]3ccccc3)CS[C@H]12)c1csc(N)n1)C(=O)O [CEFTAZIDIME] ? 1.51

====

- Test system: Escherichia coli
- measurement-description: Activity of Escherichia coli BL21(DE3) beta-lactamase TEM152
I'd appreciate it if you could supply log10 of Km values for the items below.
For clarity, the numbers are log10 values of Km expressed in µM.

Endpoint output: log10 of Km of "CCN1CCN(C(=O)N[C@@H](C(=O)N[C@@H]2C(=O)N3[C@@H]2SC(C)(C)[C@@H]3C(=O)O)c2ccccc2)C(=O)C1=O" . Value? 1.70

Need log10 of Km of "CC(C)(O/N=C(\C(=O)N[C@@H]1C(=O)N2C(C(=O)[O-])=C(C[n+]3ccccc3)CS[C@H]12)c1csc(N)n1)C(=O)O" , thanks. 2.36

Entry under review: "CO/N=C(\C(=O)N[C@@H]1C(=O)N2C(C(=O)O)=C(COC(C)=O)CS[C@H]12)c1csc(N)n1" . Reported log10 of Km? 1.53

# get_value(readout='log10 of Km', item= "CC1(C)S[C@@H]2[C@H](NC(=O)[C@H](N)c3ccc(O)cc3)C(=O)N2[C@H]1C(=O)O" ) 1.68

Any idea what log10 of Km was measured for "CC(=O)OCC1=C(C(=O)O)N2C(=O)[C@@H](NC(=O)Cc3cccs3)[C@H]2SC1" ? 2.41

// lookup log10 of Km for C[C@H]1[C@H](NC(=O)/C(=N\OC(C)(C)C(=O)O)c2csc(N)n2)C(=O)N1S(=O)(=O)O (stereo in doubt) 1.34

What value of log10 of Km has been reported for the following molecule? "CO/N=C(\C(=O)N[C@@H]1C(=O)N2C(C(=O)[O-])=C(C[N+]3(C)CCCC3)CS[C@H]12)c1csc(N)n1" 1.65

Endpoint output: log10 of Km of "CC1(C)S[C@@H]2[C@H](NC(=O)[C@H](C(=O)O)c3ccsc3)C(=O)N2[C@H]1C(=O)O" . Value? 1.56

====

- Tested on: Escherichia coli
- measurement-description: Activity of Escherichia coli BL21(DE3) beta-lactamase TEM152
For each entry below, report its kcat value.
Returns: string containing the numeric result and its unit.

Field request: kcat | item: "CO/N=C(\C(=O)N[C@@H]1C(=O)N2C(C(=O)[O-])=C(C[N+]3(C)CCCC3)CS[C@H]12)c1csc(N)n1" 2.8 s⁻¹

I'd like to know its kcat. The molecule in question is CO/N=C(\C(=O)N[C@@H]1C(=O)N2C(C(=O)O)=C(COC(C)=O)CS[C@H]12)c1csc(N)n1 [CEFOTAXIME] 1 s⁻¹

# kcat lookup, item CC(=O)OCC1=C(C(=O)O)N2C(=O)[C@@H](NC(=O)Cc3cccs3)[C@H]2SC1 [CEPHALOTHIN] 4 s⁻¹

Could you tell me which kcat is on file for CCN1CCN(C(=O)N[C@@H](C(=O)N[C@@H]2C(=O)N3[C@@H]2SC(C)(C)[C@@H]3C(=O)O)c2ccccc2)C(=O)C1=O [PIPERACILLIN] ? 306 s⁻¹

====

- System: Escherichia coli
- measurement-description: Activity of Escherichia coli BL21(DE3) beta-lactamase TEM151
quantity-name: kcat (s⁻¹)
Note: unit s⁻¹ is implicit; provide only the numeric part.

Recorded kcat for "CC1(C)S[C@@H]2[C@H](NC(=O)[C@H](N)c3ccc(O)cc3)C(=O)N2[C@H]1C(=O)O" , please? 149

Which kcat value belongs to "CO/N=C(\C(=O)N[C@@H]1C(=O)N2C(C(=O)[O-])=C(C[N+]3(C)CCCC3)CS[C@H]12)c1csc(N)n1" ? 2.5

What value of kcat has been recorded for this entry: C[C@H]1[C@H](NC(=O)/C(=N\OC(C)(C)C(=O)O)c2csc(N)n2)C(=O)N1S(=O)(=O)O (stereo in doubt) 8.3

Return reported kcat; argument: "CC(C)(O/N=C(\C(=O)N[C@@H]1C(=O)N2C(C(=O)[O-])=C(C[n+]3ccccc3)CS[C@H]12)c1csc(N)n1)C(=O)O" 5

Suppose we examine the molecule "CC1(C)S[C@@H]2[C@H](NC(=O)[C@H](C(=O)O)c3ccsc3)C(=O)N2[C@H]1C(=O)O" ; what kcat value has been reported? 60

Recorded kcat of "CO/N=C(\C(=O)N[C@@H]1C(=O)N2C(C(=O)O)=C(COC(C)=O)CS[C@H]12)c1csc(N)n1" , please. 5

Look up kcat: "CCN1CCN(C(=O)N[C@@H](C(=O)N[C@@H]2C(=O)N3[C@@H]2SC(C)(C)[C@@H]3C(=O)O)c2ccccc2)C(=O)C1=O" 172

Any idea what its kcat is? The molecule is "CC(=O)OCC1=C(C(=O)O)N2C(=O)[C@@H](NC(=O)Cc3cccs3)[C@H]2SC1" 15

====

- System: Escherichia coli
- measurement-description: Activity of Escherichia coli BL21(DE3) beta-lactamase TEM36
quantity-name: Km (µM)
Report the figure in µM without appending any unit label.

GET /values?readout=Km&item= CC1(C)S[C@@H]2[C@H](NC(=O)[C@H](C(=O)O)c3ccsc3)C(=O)N2[C@H]1C(=O)O [TICARCILLIN] 130

So what does the record say about Km for CC1(C)S[C@@H]2[C@H](NC(=O)[C@H](N)c3ccc(O)cc3)C(=O)N2[C@H]1C(=O)O [AMOXICILLIN] ? 114

What value of Km has been recorded for this entry: CCN1CCN(C(=O)N[C@@H](C(=O)N[C@@H]2C(=O)N3[C@@H]2SC(C)(C)[C@@H]3C(=O)O)c2ccccc2)C(=O)C1=O [PIPERACILLIN] 170

Would you mind telling me what Km value was observed for CC(=O)OCC1=C(C(=O)O)N2C(=O)[C@@H](NC(=O)Cc3cccs3)[C@H]2SC1 [CEPHALOTHIN] ? 335
